Tested on: ANGPTL3 protein
Experiment: Example 4: serum ANGPTL3 protein by ELISA in mice
Assay type: in vivo, C57bl/6 mice
Settings: Day 15; 1.0 mg/kg single subcutaneous dose on day 1; serum; female C57bl/6 mice
Source text: To assess the in vivo activity of ANGPTL3 RNAi agents that are designed to target additional positions on the ANGPTL3 gene, six- to eight-week-old female C57bl/6 mice were used. Pre-dose serum samples were taken at day −1 after a four hour fast. […]
In the oligonucleotide strings, read from the 5' end, every base follows the letter of its sugar. An asterisk marks phosphorothioate; unmarked linkages are phosphodiester. Other units and linkages are bracketed, terminal groups are in braces. A string of capitals states the bases alone. {NAG37} = tridentate N-acetyl-galactosamine targeting ligand, structure (NAG37)s; [invAb] = inverted abasic unit; m = 2'-O-methyl; f = 2'-fluoro
property: Avg ANGPTL3 (Average ANGPTL3 Protein Normalized to Pre-Treatment and Control)

# substance, system, reading
records = [
    ("AD05308: RNAi agent duplex: antisense AM07003-AS, sense AM07002-SS (chain 1 mU*fG*mU*fUmGfAmAfUmUfAmAfUmGfUmCfCmAfUmGfG*mA; chain 2 {NAG37}*[invAb]*mUmCmCmAmUmGmGmAfCfAfUmUmAmAmUmUmCmAmAmCmA*[invAb])", "ANGPTL3 protein", 0.298),
    ("AD05418: RNAi agent duplex: antisense AM07159-AS, sense AM07158-SS (antisense mU*fU*mU*fGmAfAmUfUmAfAmUfGmUfCmCfAmUfGmGfG*mU; sense {NAG37}*[invAb]*mAmCmCmCmAmUmGmGfAfCfAmUmUmAmAmUmUmCmAmAmA*[invAb])", "ANGPTL3 protein", 0.270),
    ("AD05487: RNAi agent duplex: antisense AM07233-AS, sense AM07232-SS (antisense mU*fA*mC*fUmGfAmUfCmAfAmAfUmAfUmGfUmUfGmAfG*mU; sense {NAG37}*[invAb]*mAmCmUmCmAmAmCmAfUfAfUmUmUmGmAmUmCmAmGmUmA*[invAb])", "ANGPTL3 protein", 0.170),
    ("AD05488: RNAi agent duplex: antisense AM07235-AS, sense AM07234-SS (antisense mU*fA*mC*fUmGfAmUfCmAfAmAfUmAfUmGfUmUfGmAfG*mC; sense {NAG37}*[invAb]*mGmCmUmCmAmAmCmAfUfAfUmUmUmGmAmUmCmAmGmUmA*[invAb])", "ANGPTL3 protein", 0.070),
]
